TARGET_OF_ASSAY: EGFR (Homo sapiens, UniProt P00533)
Sequence (P00533 25-1210): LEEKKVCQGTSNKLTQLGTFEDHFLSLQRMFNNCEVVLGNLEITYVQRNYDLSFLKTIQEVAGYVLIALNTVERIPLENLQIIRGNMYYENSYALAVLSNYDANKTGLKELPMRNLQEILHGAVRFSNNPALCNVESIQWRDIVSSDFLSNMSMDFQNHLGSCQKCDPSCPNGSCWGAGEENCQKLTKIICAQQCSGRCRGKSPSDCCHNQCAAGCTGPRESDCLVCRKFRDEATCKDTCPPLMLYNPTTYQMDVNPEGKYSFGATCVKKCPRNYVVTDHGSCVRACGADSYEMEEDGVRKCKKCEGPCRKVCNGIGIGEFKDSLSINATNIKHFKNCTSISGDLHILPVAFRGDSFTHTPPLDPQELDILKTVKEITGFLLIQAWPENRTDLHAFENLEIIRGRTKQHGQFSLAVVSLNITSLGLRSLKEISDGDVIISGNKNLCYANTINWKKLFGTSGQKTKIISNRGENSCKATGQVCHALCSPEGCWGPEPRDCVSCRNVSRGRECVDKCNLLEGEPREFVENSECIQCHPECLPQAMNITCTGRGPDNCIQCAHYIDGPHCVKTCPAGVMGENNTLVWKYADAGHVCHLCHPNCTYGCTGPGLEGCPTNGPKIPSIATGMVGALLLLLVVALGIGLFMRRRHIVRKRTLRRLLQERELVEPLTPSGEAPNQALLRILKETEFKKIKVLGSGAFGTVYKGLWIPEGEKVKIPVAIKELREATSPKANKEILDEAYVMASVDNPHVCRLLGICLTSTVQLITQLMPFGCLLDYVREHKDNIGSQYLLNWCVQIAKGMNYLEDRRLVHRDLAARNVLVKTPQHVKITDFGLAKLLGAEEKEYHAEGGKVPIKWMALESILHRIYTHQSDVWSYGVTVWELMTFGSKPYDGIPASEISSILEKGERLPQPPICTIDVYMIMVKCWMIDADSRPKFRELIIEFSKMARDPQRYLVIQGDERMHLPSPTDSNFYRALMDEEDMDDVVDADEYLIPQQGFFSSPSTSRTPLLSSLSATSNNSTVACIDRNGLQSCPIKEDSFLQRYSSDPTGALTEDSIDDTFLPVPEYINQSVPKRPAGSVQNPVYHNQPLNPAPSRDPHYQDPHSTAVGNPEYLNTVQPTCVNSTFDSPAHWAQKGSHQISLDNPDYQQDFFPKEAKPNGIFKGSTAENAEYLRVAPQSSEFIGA
RUN_DESCRIPTION: ADP-Glo kinase assay, EGFR
Format: biochemical
Design: purchased BPS Bioscience (assay run externally by the vendor)
CONDITION_PARAMETERS: Log[nM] 1.0; Set3
Documented EGFR % Activity Set3 across a set of compounds

| COMPOUND | TARGET_OF_ASSAY | EGFR % Activity Set3 |
| --- | --- | --- |
| Cc1ccccc1Nc1ncnc2[nH]ccc12 [Compound 15] | EGFR (Homo sapiens, UniProt P00533) | 128% |
| Nc1nc(Nc2cccc(Br)c2)c2cc[nH]c2n1 [Compound 8] | EGFR (Homo sapiens, UniProt P00533) | 91% |
| COc1ccc(Nc2ncnc3[nH]ccc23)cc1 [Compound 6] | EGFR (Homo sapiens, UniProt P00533) | 108% |
| Clc1ccccc1Nc1ncnc2[nH]ccc12 [Compound 14] | EGFR (Homo sapiens, UniProt P00533) | 96% |
| Cc1ccc(Nc2ncnc3[nH]ccc23)cc1 [Compound 9] | EGFR (Homo sapiens, UniProt P00533) | 103% |
| Clc1ccc(Nc2ncnc3[nH]ccc23)cc1Cl [Compound 5] | EGFR (Homo sapiens, UniProt P00533) | 48% |
| Cc1cccc(Nc2ncnc3[nH]ccc23)c1 [Compound 12] | EGFR (Homo sapiens, UniProt P00533) | 66% |
| c1ccc(Nc2ncnc3[nH]ccc23)cc1 [Compound 1] | EGFR (Homo sapiens, UniProt P00533) | 106% |
| FC(F)(F)c1cccc(Nc2ncnc3[nH]ccc23)c1 [Compound 13] | EGFR (Homo sapiens, UniProt P00533) | 95% |
| Clc1ccc(Nc2ncnc3[nH]ccc23)cc1 [Compound 4] | EGFR (Homo sapiens, UniProt P00533) | 96% |
| c1ccc(Oc2ccc(Nc3ncnc4[nH]ccc34)cc2)cc1 [Compound 17] | EGFR (Homo sapiens, UniProt P00533) | 97% |
| Clc1ccc(Nc2ncnc3[nH]ccc23)cc1Br [Compound 7] | EGFR (Homo sapiens, UniProt P00533) | 20% |
| Fc1cc(Nc2ncnc3[nH]ccc23)ccc1Cl [Compound 3] | EGFR (Homo sapiens, UniProt P00533) | 40% |
| Brc1cccc(Nc2ncnc3[nH]ccc23)c1 [Compound 2] | EGFR (Homo sapiens, UniProt P00533) | 28% |
| Brc1ccc(Nc2ncnc3[nH]ccc23)cc1 [Compound 10] | EGFR (Homo sapiens, UniProt P00533) | 97% |
| c1ccc(Cc2ccc(Nc3ncnc4[nH]ccc34)cc2)cc1 [Compound 18] | EGFR (Homo sapiens, UniProt P00533) | 88% |
| Clc1cccc(Nc2ncnc3[nH]ccc23)c1 [Compound 11] | EGFR (Homo sapiens, UniProt P00533) | 39% |
